Examples of molecules with documented Ki follow.
# assayedTarget: α2β4 nAChR (Rattus norvegicus (Rat), UniProt P12389+P12392)
# Sequence (P12389 28-511): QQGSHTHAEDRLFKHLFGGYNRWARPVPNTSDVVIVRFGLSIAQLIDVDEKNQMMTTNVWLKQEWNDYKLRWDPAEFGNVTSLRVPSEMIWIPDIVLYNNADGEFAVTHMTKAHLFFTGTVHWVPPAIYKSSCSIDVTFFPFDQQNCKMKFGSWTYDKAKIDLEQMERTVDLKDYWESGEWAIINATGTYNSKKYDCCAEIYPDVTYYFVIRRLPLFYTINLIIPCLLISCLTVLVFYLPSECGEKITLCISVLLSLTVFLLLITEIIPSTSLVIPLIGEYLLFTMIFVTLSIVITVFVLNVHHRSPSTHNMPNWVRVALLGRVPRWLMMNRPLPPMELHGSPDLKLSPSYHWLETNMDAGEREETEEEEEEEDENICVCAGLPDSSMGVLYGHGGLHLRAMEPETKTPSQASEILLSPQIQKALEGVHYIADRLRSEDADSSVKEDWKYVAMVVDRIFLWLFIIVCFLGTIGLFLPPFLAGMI
# Sequence (P12392 21-495): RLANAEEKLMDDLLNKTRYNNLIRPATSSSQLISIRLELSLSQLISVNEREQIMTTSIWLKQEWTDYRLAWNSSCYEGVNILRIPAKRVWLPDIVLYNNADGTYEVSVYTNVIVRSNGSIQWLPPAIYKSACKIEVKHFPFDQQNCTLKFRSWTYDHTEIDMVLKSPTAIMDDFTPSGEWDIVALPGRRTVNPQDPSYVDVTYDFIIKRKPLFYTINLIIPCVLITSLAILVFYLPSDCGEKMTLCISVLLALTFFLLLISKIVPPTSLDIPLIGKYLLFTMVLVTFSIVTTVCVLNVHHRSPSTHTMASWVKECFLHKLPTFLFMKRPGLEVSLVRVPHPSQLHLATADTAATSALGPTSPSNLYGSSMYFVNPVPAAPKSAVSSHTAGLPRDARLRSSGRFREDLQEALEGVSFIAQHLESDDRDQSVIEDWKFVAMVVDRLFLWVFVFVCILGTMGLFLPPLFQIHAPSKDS
# protocolText: [3H]-epibatidine competition binding, α2β4
# statedConditions: Table 1; mean of 3 to 5 measurements
State the answer as a number, implicitly in µM.

>  <molecule>
Cc1ncc(C#CCCCCF)cc1OC[C@@H]1CCN1 [(S)-22]

>  <Ki [µM]>
24

$$$$

Kindly consider the entry below.
Returns the measured Ki for the input molecule. Input: Cc1ncc(C#CCCCCCl)cc1OC[C@@H]1CCN1 [(S)-21] 29

###

# assayedTarget: human α4β2 nAChRs (Homo sapiens (Human), UniProt P17787+P43681)
# Sequence (P43681 29-627): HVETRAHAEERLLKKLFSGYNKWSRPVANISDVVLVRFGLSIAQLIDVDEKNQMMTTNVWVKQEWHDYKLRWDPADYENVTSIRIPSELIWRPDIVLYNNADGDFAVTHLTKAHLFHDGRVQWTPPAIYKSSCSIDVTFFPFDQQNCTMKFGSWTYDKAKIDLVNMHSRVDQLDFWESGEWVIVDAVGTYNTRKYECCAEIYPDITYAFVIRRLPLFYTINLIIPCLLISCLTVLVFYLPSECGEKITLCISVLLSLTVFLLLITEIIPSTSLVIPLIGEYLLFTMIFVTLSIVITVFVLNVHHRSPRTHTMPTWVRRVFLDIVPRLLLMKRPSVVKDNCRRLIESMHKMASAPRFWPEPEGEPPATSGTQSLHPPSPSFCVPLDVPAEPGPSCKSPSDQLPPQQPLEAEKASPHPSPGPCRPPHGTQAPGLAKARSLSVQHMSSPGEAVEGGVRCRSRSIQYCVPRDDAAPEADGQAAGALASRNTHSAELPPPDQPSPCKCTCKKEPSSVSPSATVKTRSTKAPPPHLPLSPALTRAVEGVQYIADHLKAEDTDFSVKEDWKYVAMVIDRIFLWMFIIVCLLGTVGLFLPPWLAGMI
# Sequence (P17787 26-502): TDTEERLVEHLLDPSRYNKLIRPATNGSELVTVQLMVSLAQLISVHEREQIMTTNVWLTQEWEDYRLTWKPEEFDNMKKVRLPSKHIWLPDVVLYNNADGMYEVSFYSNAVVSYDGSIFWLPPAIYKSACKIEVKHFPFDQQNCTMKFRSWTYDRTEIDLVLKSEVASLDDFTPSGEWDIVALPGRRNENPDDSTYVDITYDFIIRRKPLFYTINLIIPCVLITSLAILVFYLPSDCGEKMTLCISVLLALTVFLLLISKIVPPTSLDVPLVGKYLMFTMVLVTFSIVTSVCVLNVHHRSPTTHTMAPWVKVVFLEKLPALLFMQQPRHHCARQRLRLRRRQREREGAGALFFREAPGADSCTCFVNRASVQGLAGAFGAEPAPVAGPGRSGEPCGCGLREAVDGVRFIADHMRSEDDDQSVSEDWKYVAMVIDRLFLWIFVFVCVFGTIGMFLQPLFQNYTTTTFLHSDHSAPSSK
# protocolText: 86Rb+ efflux assay (activation and desensitization), α4β2
# Assay type: cell-based
# statedConditions: agonist efficacy normalized to Emax of nicotine; ND = no significant stimulated efflux detected; read-out: Emax α4β2 nAChRs
reportedProperty: Emax

Example entries begin here.
>  <compound>
Cc1ncc(C#CC2CC2)cc1OC[C@@H]1CCN1 [(S)-27]

>  <reportedProperty>
Emax

>  <reading>
< 20%

$$$$
>  <compound>
CCCCC#Cc1cnc(C)c(OC[C@@H]2CCN2)c1 [(S)-15]

>  <reportedProperty>
Emax

>  <reading>
< 20%

$$$$
>  <compound>
OCCCCC#Cc1cncc(OC[C@@H]2CCN2)c1 [Sazetidine-A, reference compound]

>  <reportedProperty>
Emax

>  <reading>
40%

$$$$

# evaluate next
So what's the measured Emax for this one? Cc1ncc(C#CCCCCO)cc1OC[C@@H]1CCN1 [(S)-17] < 20%
